System: 268gly
Test Details: Enzyme kinetics of prodrugs with 268gly mutant of human CPA1 (coupled assay)
Format: biochemical
Measurement Setup: 268gly; 25° C., pH 7.4
Experimental Readout: kcat (s⁻¹)

CN(Cc1cnc2nc(N)nc(N)c2n1)c1ccc(C(=O)N[C@@H](CCC(=O)O)C(=O)N[C@@H](Cc2ccccc2)C(=O)O)cc1 [Prodrug 10, reference compound] ... 2.2
CN(Cc1cnc2nc(N)nc(N)c2n1)c1ccc(C(=O)N[C@@H](CCC(=O)O)C(=O)N[C@@H](Cc2ccc(O)c(C3CCCC3)c2)C(=O)O)cc1 [Prodrug 13] ... 3
CN(Cc1cnc2nc(N)nc(N)c2n1)c1ccc(C(=O)N[C@@H](CCC(=O)O)C(=O)N[C@@H](Cc2cccc(C3CCC3)c2)C(=O)O)cc1 ... 3

----------
Test Details: Stability and biodistribution of prodrugs in vivo (HPLC of plasma and tissues)
Design: species or system mice (CD-1 nude; BALB/C where indicated)
Measurement Setup: LIVER, 30 min, 50 mg/kg i.p. or i.v., CD-1 nude mice
Experimental Readout: concentration of prodrug in liver

Cc1nc2ccc3ccc(CNc4ccc5c(c4)CN([C@@H](CCC(=O)O)C(=O)N[C@@H](Cc4ccccc4)C(=O)O)C5=O)cc3c2c(=O)[nH]1 [Prodrug 2] ... 42.0 nmol/g
CN(Cc1cnc2nc(N)nc(N)c2n1)c1ccc(C(=O)N[C@@H](CCC(=O)O)C(=O)N[C@@H](Cc2ccccc2C(=O)O)C(=O)O)cc1 [Prodrug 7] ... 171.9 nmol/g
Cc1nc2ccc3ccc(CNc4ccc(C(=O)N[C@@H](CCC(=O)O)C(=O)N[C@@H](CCC(=O)O)C(=O)O)c(F)c4)cc3c2c(=O)[nH]1 [Prodrug 1] ... 770.3 nmol/g
CN(Cc1cnc2nc(N)nc(N)c2n1)c1ccc(C(=O)N[C@@H](CCC(=O)O)C(=O)N[C@@H](Cc2ccc(O)c(C3CCCC3)c2)C(=O)O)cc1 [Prodrug 13] ... 47.7 nmol/g
Cc1nc2ccc3ccc(CNc4ccc(C(=O)N[C@@H](CCC(=O)O)C(=O)N[C@@H](Cc5ccccc5C(=O)O)C(=O)O)c(F)c4)cc3c2c(=O)[nH]1 [Prodrug 4] ... 343.4 nmol/g
CN(Cc1cnc2nc(N)nc(N)c2n1)c1ccc(C(=O)N[C@@H](CCC(=O)O)C(=O)N[C@@H](Cc2ccccc2C2CCCC2)C(=O)O)cc1 [Prodrug 8] ... 113.5 nmol/g
Nc1nc(N)c(CCCNc2ccc(C(=O)N[C@@H](CCC(=O)O)C(=O)N[C@@H](Cc3cccc(C4CCCC4)c3)C(=O)O)cc2)c(=O)[nH]1 [Prodrug 14] ... 22.5 nmol/g

----------
Test Details: Stability and biodistribution of prodrugs in vivo (HPLC of plasma and tissues)
Design: species or system mice (CD-1 nude; BALB/C where indicated)
Measurement Setup: mouse, plasma, 50 mg/kg, PLASMA, 180 min, 50 mg/kg i.p. or i.v., CD-1 nude mice; read-out: concentration of prodrug in plasma
Experimental Readout: concentration at 3 h (µM)

Cc1nc2ccc3ccc(CNc4ccc5c(c4)CN([C@@H](CCC(=O)O)C(=O)N[C@@H](Cc4ccccc4)C(=O)O)C5=O)cc3c2c(=O)[nH]1 [Prodrug 2] ... 3.5

----------
Test Details: Stability and biodistribution of prodrugs in vivo (HPLC of plasma and tissues)
Design: species or system mice (CD-1 nude; BALB/C where indicated)
Measurement Setup: LIVER, 30 min, 50 mg/kg i.p. or i.v., CD-1 nude mice
Experimental Readout: concentration of prodrug in liver

CN(Cc1cnc2nc(N)nc(N)c2n1)c1ccc(C(=O)N[C@@H](CCC(=O)O)C(=O)N[C@@H](Cc2cccc(C3CCC3)c2)C(=O)O)cc1 [Prodrug 11] ... 53.8 nmol/g
CN(Cc1cnc2nc(N)nc(N)c2n1)c1ccc(C(=O)N[C@@H](CCC(=O)O)C(=O)N[C@@H](CC(=O)O)C(=O)O)cc1 [Prodrug 6] ... 287.8 nmol/g
CN(Cc1cnc2nc(N)nc(N)c2n1)c1ccc(C(=O)N[C@@H](CCC(=O)O)C(=O)N[C@@H](Cc2ccccc2)C(=O)O)cc1 [Prodrug 10, reference compound] ... 335.1 nmol/g
Cc1nc2ccc3ccc(CNc4ccc(C(=O)N[C@@H](CCC(=O)O)C(=O)N[C@@H](Cc5ccccc5I)C(=O)O)c(F)c4)cc3c2c(=O)[nH]1 [Prodrug 5] ... 118.2 nmol/g
CN(Cc1cnc2nc(N)nc(N)c2n1)c1ccc(C(=O)N[C@@H](CCC(=O)O)C(=O)N[C@@H](Cc2cccc(C(C)(C)C)c2)C(=O)O)cc1 [Prodrug 12] ... 58.6 nmol/g
CN(Cc1cnc2nc(N)nc(N)c2n1)c1ccc(C(=O)N[C@@H](CCC(=O)O)C(=O)N[C@@H](Cc2cccc(C3CCCC3)c2)C(=O)O)cc1 [Prodrug 9] ... 54.3 nmol/g
